src = the supplement of paper PMC10567573

I'd appreciate it if you could supply protein stability index values for the items below.
B1: NECAB1 (parent)
chain: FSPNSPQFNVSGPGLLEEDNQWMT

# Variants of: B1
# test.details: protein stability index of a GFP-peptide fusion (GPS, HEK-293T) (PSI 1-6); higher = more stable;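 further: lentivirally expressed fusions sorted by FACS into six bins by GFP to DsRed ratio, PSI derived from sequencing read proportions per bin multiplied by bin number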
# study.conditions: c terminus: a fixed tail appended
Give bare numbers.

V10N; 3.68
P13V; 2.75
L16Y; 2.73
N20E; 3.73
S2E; 4.58

Batch request: protein stability index for each of the following variants.
1. P3V
2. G12R
3. M23W
4. E17A
5. E18R
6. E18V
7. Q21K
8. T24G

1. 2.88
2. 2.7
3. 2.35
4. 2.4
5. 2.14
6. 2.31
7. 3.06
8. 3.01
